Cited source: the supplement of paper PMC11208160

test.protocol: recombinant barcode read abundance after kanamycin selection (control-corrected) (log10(CPM+1)); higher = more efficient recombination; sequences stand for … in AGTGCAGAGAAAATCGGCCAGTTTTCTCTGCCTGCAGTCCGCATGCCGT…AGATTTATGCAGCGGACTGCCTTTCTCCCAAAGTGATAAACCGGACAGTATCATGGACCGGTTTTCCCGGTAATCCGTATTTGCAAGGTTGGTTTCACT; site = the 11-nt target
Listing of recorded recombinant barcode read abundance (log10) by entry.
Enter a number only.

Field: example entries. Status: answers known.
>  <item.sequence>
TAGGAACCTTGGGTTCTAACCTGTTGCCT (site AAGGAACCTAG)

>  <reported.measurement>
0.7

$$$$
>  <item.sequence>
GACTTGCCTTGGGTTCTAACCTGTTGCAT (site GACTTTCCTAT)

>  <reported.measurement>
0.813

$$$$

Noted for CCAAGGACTTGGGTTCTAACCTGTTGCCT (site CCATGGACTAG) : its recombinant barcode read abundance (log10) reads 0.0382

Noted for GGTGCGTCTTGGGTTCTAACCTGTTGCCT (site AGTGCGTCTAG) : its recombinant barcode read abundance (log10) reads 0.246

Noted for AGGAATTCTTGGGTTCTAACCTGTTGCCT (site AGTAATTCTAG) : its recombinant barcode read abundance (log10) reads 0

Noted for ATATGAGCTTGGGTTCTAACCTGTTGCCG (site ATATGGGCTCG) : its recombinant barcode read abundance (log10) reads 0.0468

Noted for TCCGTGACTTGGGTTCTAACCTGTTGCCT (site TCCGTGTCTAG) : its recombinant barcode read abundance (log10) reads 0.352

Noted for GTGAGCCCTTGGGTTCTAACCTGTTGCCG (site GTGCGCTCTCG) : its recombinant barcode read abundance (log10) reads 0.0474

Noted for GGTAAATCTTGGGTTCTAACCTGTTGCCT (site GGTAAATCTAG) : its recombinant barcode read abundance (log10) reads 0.459

Noted for GGGTCGGCTTGGGTTCTAACCTGTTGCTG (site GGGTCGGCTCA) : its recombinant barcode read abundance (log10) reads 1.91

###

test.protocol: recombinant UMI read abundance after kanamycin selection (control-corrected) (log10(CPM+1)); higher = more efficient recombination; extreme values may be limits of the assay; sequences stand for … in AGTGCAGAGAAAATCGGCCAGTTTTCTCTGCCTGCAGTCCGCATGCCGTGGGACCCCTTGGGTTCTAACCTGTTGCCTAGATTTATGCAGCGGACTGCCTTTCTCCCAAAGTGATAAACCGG…AGGTTGGTTTCACT; site = the 11-nt donor
Listing of recorded recombinant UMI read abundance (log10) by entry.
Enter a number only.

>  <item.sequence>
GTTCGTACATGGACCGGTTTTCCCGGTAATCCGTATTTGTT (site GTTCGTACTAA)

>  <reported.measurement>
0.0105

$$$$

Noted for ACATCTACATGGACCGGTTTTCCCGGTAATCCGTATTTGGG (site ACATCTACTCC) : its recombinant UMI read abundance (log10) reads 0.54

Noted for TAATCAGCATGGACCGGTTTTCCCGGTAATCCGTATTTGTC (site TAATCAGCTGA) : its recombinant UMI read abundance (log10) reads 1.93

Noted for AGTTTCCCATGGACCGGTTTTCCCGGTAATCCGTATTTGTG (site AGGTTCCCTCA) : its recombinant UMI read abundance (log10) reads 0.0056

Noted for GAATGGCCATGGACCGGTTTTCCCGGTAATCCGTATTTGCA (site GAAAGGCCTTG) : its recombinant UMI read abundance (log10) reads 0

Noted for CGTTAGTCATGGACCGGTTTTCCCGGTAATCCGTATTTGAG (site CGTTAGCCTCT) : its recombinant UMI read abundance (log10) reads 0.0076

Noted for CTAGCATCATGGACCGGTTTTCCCGGTAATCCGTATTTGAA (site CTAGCATCTTT) : its recombinant UMI read abundance (log10) reads 2.86

Noted for ACACGGACATGGACCGGTTTTCCCGGTAATCCGTATTTGTC (site ACACGGACTGA) : its recombinant UMI read abundance (log10) reads 0.491

Noted for CACTGGGCATGGACCGGTTTTCCCGGTAATCCGTATTTGGA (site CACTTGGCTTC) : its recombinant UMI read abundance (log10) reads 0.0159

Noted for GTTATTCCATGGACCGGTTTTCCCGGTAATCCGTATTTGGT (site GTTCTTCCTAC) : its recombinant UMI read abundance (log10) reads 0

Noted for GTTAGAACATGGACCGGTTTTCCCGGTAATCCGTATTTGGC (site GTTAGAGCTGC) : its recombinant UMI read abundance (log10) reads 0.0184

Noted for CATTGGACATGGACCGGTTTTCCCGGTAATCCGTATTTGAC (site TATTGGACTGT) : its recombinant UMI read abundance (log10) reads 0

Noted for TGCTCCCCATGGACCGGTTTTCCCGGTAATCCGTATTTGTA (site TGTTCCCCTTA) : its recombinant UMI read abundance (log10) reads 0.00224

Noted for ACCTATACATGGACCGGTTTTCCCGGTAATCCGTATTTGGG (site ACCTAAACTCC) : its recombinant UMI read abundance (log10) reads 0.00642

Noted for TAGCTTGCATGGACCGGTTTTCCCGGTAATCCGTATTTGAA (site TAGCTCGCTTT) : its recombinant UMI read abundance (log10) reads 0.0167
